Provenance of the data: ChEMBL document CHEMBL1157539

# Tested on: HepG2
# procedureSummary: GSK_TCMDC: Percent inhibition of human HepG2 cell line. Test compounds present at 10uM.
# Type: functional
Assign Inhibition to each entry below.
Expressed in %, but write only the number.

I am curious: what Inhibition value has been reported for CN(C)CCc1coc2ccc(C(=O)Nc3ccc(-c4ccc(O)cc4)cc3)cc12 ?
28

I am curious: what Inhibition value has been reported for COc1cc2c(cc1C(F)(F)F)N(C(=O)Nc1cc(F)cc(-c3cncnc3)c1)CC2 ?
15

I am curious: what Inhibition value has been reported for COc1cc2nc(NCCc3ccccc3)nc(NC(C)c3ccccc3)c2cc1OC (centres undefined) ?
9

I am curious: what Inhibition value has been reported for N=C(/N=C(/NCCCCCCN/C(=N\C(=N)Nc1ccc(Cl)cc1)N1CCOCC1)N1CCOCC1)Nc1ccc(Cl)cc1 ?
0

I am curious: what Inhibition value has been reported for O=C(/C=C/c1ccccc1Cl)Nc1ccc(Br)c(OCCN2CCN(CCN3CCOCC3)CC2)c1.O=C(O)C(=O)O ?
22

I am curious: what Inhibition value has been reported for O=S(=O)(c1csc2ccccc12)N(CCC(O)(C(F)(F)F)C(F)(F)F)Cc1cccc(O)c1 ?
0

I am curious: what Inhibition value has been reported for CCOC(=O)CC[C@H](NC(=O)c1ccc(NS(=O)(=O)c2ccc(-c3cnc(N)[nH]c3=O)cc2)cc1)C(=O)OCC ?
5

I am curious: what Inhibition value has been reported for CCOc1cc(Cl)c(C(C)NC(=O)c2ccccc2)cc1OCC (centres undefined) ?
0

I am curious: what Inhibition value has been reported for Nc1cc(-c2ccc3c(N)nccc3c2)ccc1Cl ?
1

---

Assign Inhibition to each entry below.
# Test system: Plasmodium falciparum
# procedureSummary: GSK_TCMDC: Inhibition of Plasmodium falciparum Dd2 in whole red blood cells, using parasite LDH activity as an index of growth. Test compounds present at 2uM
# Type: functional
Expressed in %, but write only the number.

I am curious: what Inhibition value has been reported for N#Cc1ccc(CNCCCCCCCNCc2ccc(-c3ccccc3)cc2)cc1 ?
10

I am curious: what Inhibition value has been reported for CCNc1cc(C(=O)N[C@@H](Cc2cccc(F)c2)[C@H](O)CNC(C)CCCC(C)C)cc(N2CCCCS2(=O)=O)c1.Cl (some centres undefined) ?
97

I am curious: what Inhibition value has been reported for COc1cc2nc(N3CCC(CNC(=O)/C=C/c4ccccc4F)CC3)nc(N)c2cc1OC.Cl ?
88

I am curious: what Inhibition value has been reported for Cn1nccc1C(=O)NCCNCc1cccc(-c2ccc(-c3nc4cc(C(F)(F)F)ccc4[nH]3)s2)c1.O=C(O)C(F)(F)F ?
99

I am curious: what Inhibition value has been reported for OCCc1ccc(Nc2nccc(-c3nnc4ccccn34)n2)cc1 ?
46

I am curious: what Inhibition value has been reported for O=C(Cc1cc(F)cc(F)c1)NC1CCN(c2ccnc3cc(Cl)ccc23)C1.O=C(O)C(F)(F)F (centres undefined) ?
100

I am curious: what Inhibition value has been reported for Cc1cc2ncn(-c3nccc(NCc4ccc(F)c(C)c4)n3)c2cc1C.O=C(O)C(F)(F)F ?
82

I am curious: what Inhibition value has been reported for CCc1nn2c(Nc3ccncc3)cc(C)nc2c1-c1ccccc1 ?
98

I am curious: what Inhibition value has been reported for CCC(NCc1ccc(-c2cncc(C(=O)NCC(C)C)c2)cc1)c1ccccc1.O=C(O)C(F)(F)F (centres undefined) ?
8

---

# Test system: HepG2
# procedureSummary: GSK_TCMDC: Percent inhibition of human HepG2 cell line. Test compounds present at 10uM.
# Format: functional
Assign Inhibition to each entry below.
Expressed in %, but write only the number.

What Inhibition appears in the records for this compound with HepG2? CN(C)C(=O)c1cc(CNCc2ccccc2)ccc1-c1cccc(CNCc2ccc(-c3ccccc3)cc2)c1.O=C(O)C(F)(F)F
27

What Inhibition appears in the records for this compound with HepG2? COc1cc(F)c2nccc([C@@H](O)CN3CCC(NCc4nc5cccc(F)c5[nH]4)CC3)c2c1.O=C(O)C(=O)O
11

What Inhibition appears in the records for this compound with HepG2? O=C(Cc1ccccc1)NC(c1ccc(Cl)cc1)c1ccc2cccnc2c1O (configuration not stated)
50

What Inhibition appears in the records for this compound with HepG2? O=C(Nc1cccc(-c2ccc(-c3nc4cc(C(F)(F)F)ccc4[nH]3)cc2)c1)c1ccoc1
76

What Inhibition appears in the records for this compound with HepG2? Cc1cccc(C)c1C1CCN(CCCCNC(=O)c2cc3ccccc3[nH]2)CC1
46

What Inhibition appears in the records for this compound with HepG2? O=C(COC(=O)c1cccc(S(=O)(=O)N2CCc3ccccc32)c1)NNC(=O)c1cccs1
4

What Inhibition appears in the records for this compound with HepG2? O=C(Nc1ccc(-c2cccc(-c3nc4ccccc4[nH]3)c2)cc1)Nc1ccc(F)c(F)c1F
74

What Inhibition appears in the records for this compound with HepG2? CN1CCN(CCCN(Cc2csc(-c3ccc(CNCc4ccccc4)cc3)n2)S(=O)(=O)c2ccc(F)cc2)CC1.O=C(O)C(F)(F)F
21

What Inhibition appears in the records for this compound with HepG2? CN(C)S(=O)(=O)c1ccc(N2CCN(CCC3(c4cccc(F)c4)CCN(C(=O)C(C)(C)C)CC3)CC2)c2nonc12
8

What Inhibition appears in the records for this compound with HepG2? O=C(Nc1cc(C(F)(F)F)cc(C(F)(F)F)c1)c1cccc([N+](=O)[O-])c1
23

What Inhibition appears in the records for this compound with HepG2? COc1ccc2ncc(F)c(CCN3CCC(NCc4cc(OC)c5c(c4)OCCO5)CC3)c2n1.Cl
0

What Inhibition appears in the records for this compound with HepG2? O=C(Nc1ccc(-c2csc(-c3nc4ccccc4[nH]3)c2)cc1)Nc1ccsc1
50

What Inhibition appears in the records for this compound with HepG2? CC(OC(=O)c1ccc(C(=O)NCC2CC2)cc1)C(C)(C)C (configuration not stated)
10

What Inhibition appears in the records for this compound with HepG2? COc1ccc2nccc(N3CCC(O)(CCNCc4ccc5c(n4)NC(=O)CO5)CC3)c2n1.Cl
18

What Inhibition appears in the records for this compound with HepG2? COc1ccc2ncc(F)c([C@@H](O)CN3CCC(NCc4cc5c(cn4)OCS5)CC3)c2c1.Cl
16

What Inhibition appears in the records for this compound with HepG2? CS(=O)(=O)CCNCc1ccc(-c2ccc3c(Nc4ccc(Oc5ccccn5)cc4)ccnc3c2)o1
0

What Inhibition appears in the records for this compound with HepG2? CN(Cc1cccc(F)c1)C1CCN(c2cc(NC(=O)c3ccc(F)cc3)ccn2)C1.O=C(O)C(F)(F)F (configuration not stated)
7

What Inhibition appears in the records for this compound with HepG2? COC(=O)c1cccc(CNCc2cccc(-c3cccc(-c4nc5cc(C(F)(F)F)ccc5[nH]4)c3)c2)c1.O=C(O)C(F)(F)F
7

What Inhibition appears in the records for this compound with HepG2? CCc1ccc(CN2CCC(CNC(=O)c3cc(-c4ccccc4Cl)cs3)C2)cc1.O=C(O)C(F)(F)F (configuration not stated)
14

What Inhibition appears in the records for this compound with HepG2? CCc1sc(-c2cc(Cl)ccc2OC)nc1C(=O)NCCN1CCCCC1.O=C(O)C(F)(F)F
3

What Inhibition appears in the records for this compound with HepG2? Cc1ccccc1C1CCN(C2CCC(NC(=O)C3=Cc4ccccc4OC3)CC2)CC1 (configuration not stated)
26

What Inhibition appears in the records for this compound with HepG2? CCN(CC)CCNC(=O)c1ccc(NC(=O)c2cn(-c3ccccc3)nc2-c2cccs2)cc1
30

What Inhibition appears in the records for this compound with HepG2? Cc1c(-c2cccc(Br)c2)[nH]c2nc(N)nc(N)c12
8

What Inhibition appears in the records for this compound with HepG2? CCCCCCN1CCCN(Cc2ccc(C(=O)Nc3ccc(C(C)(C)C)cc3)cc2)CC1.O=C(O)C(F)(F)F
53

What Inhibition appears in the records for this compound with HepG2? COc1ccc2[nH]ccc(=NN=Cc3ccc(N(C)C)cc3)c2c1
4

What Inhibition appears in the records for this compound with HepG2? Cc1ccc(-c2ccc(Cl)cc2Oc2cnc(N)nc2N)o1
15

What Inhibition appears in the records for this compound with HepG2? CC(C(=O)NC1CCN(c2ccnc(Nc3ccc(F)cc3)n2)C1)c1ccc(Cl)cc1 (configuration not stated)
17

What Inhibition appears in the records for this compound with HepG2? Nc1ccc(Oc2ccc(Cc3cnc(N)nc3N)cc2)cc1
10

What Inhibition appears in the records for this compound with HepG2? COc1cccc(-c2[nH]c3ccccc3c2CN2CCC(c3c(C)cccc3C)CC2)c1
32

What Inhibition appears in the records for this compound with HepG2? COc1cc2nc(N(C)Cc3cc4c(Cl)cccc4s3)nc(N)c2cc1OC.Cl
32

What Inhibition appears in the records for this compound with HepG2? Cl.Nc1c2c(nc3ccc(NC(=O)CCCCCCc4ccccc4)cc13)CCCC2
100

What Inhibition appears in the records for this compound with HepG2? COCCNc1nc(N2CCC(CNC(=O)c3ccc(-c4ccc(C(=O)N(C)C)cc4C)cc3)CC2)nc2cc(OC)c(OC)cc12
12

What Inhibition appears in the records for this compound with HepG2? O=C(N[C@@H](Cc1ccccc1)C(=O)NC1CCCc2ccccc21)c1ccc(O)c(-c2ccc(Cl)c(Cl)c2)c1 (some centres not stated)
0

What Inhibition appears in the records for this compound with HepG2? Cc1ccc(NC(=O)c2cccc(CN3CCCN(CC4CCCCC4)CC3)c2)cc1F.O=C(O)C(F)(F)F
22

What Inhibition appears in the records for this compound with HepG2? CC(C)N(Cc1cnc(N)c(C#N)n1)c1ccc(Cl)c(Cl)c1
0

What Inhibition appears in the records for this compound with HepG2? O=C(NCc1cccc(F)c1)Nc1ccc(-c2cccc(-c3nc4cc(F)ccc4[nH]3)c2)cc1
31

What Inhibition appears in the records for this compound with HepG2? O=C(OCc1ccccc1)N1CCc2c([nH]c3ccccc23)C1CCC(F)(F)F (configuration not stated)
0
